tested on: TK-10 renal; experiment: NCI tumour cell line growth inhibition, 48 h
Would you mind telling me the reported TGI of each entry?
Numbers only, in µM.

Answer for every listed entry: what is its TGI? The entries follow.
1. C=C1C(=O)O[C@@H]2CC(CO)=C([C@@H](C)CCCO)[C@@H](OC(=O)/C(C)=C\C)[C@H]12
2. COc1ccc(/C=C2\COc3ccc(O)c(O)c3C2=O)cc1OC
3. O=C1C(Cl)=C(Nc2cc(Cl)ccc2O)C(=O)N1Cc1ccccc1
4. OC(CN1CCCC2CCCCC21)c1cc2ccccc2c2ccccc12 (stereo not given)

Return:
45.9
27.6
42.9
7.66
